- target.or.system: Human Factor B (human) (UniProt P00751)
- Sequence (P00751 26-764 limits assumed): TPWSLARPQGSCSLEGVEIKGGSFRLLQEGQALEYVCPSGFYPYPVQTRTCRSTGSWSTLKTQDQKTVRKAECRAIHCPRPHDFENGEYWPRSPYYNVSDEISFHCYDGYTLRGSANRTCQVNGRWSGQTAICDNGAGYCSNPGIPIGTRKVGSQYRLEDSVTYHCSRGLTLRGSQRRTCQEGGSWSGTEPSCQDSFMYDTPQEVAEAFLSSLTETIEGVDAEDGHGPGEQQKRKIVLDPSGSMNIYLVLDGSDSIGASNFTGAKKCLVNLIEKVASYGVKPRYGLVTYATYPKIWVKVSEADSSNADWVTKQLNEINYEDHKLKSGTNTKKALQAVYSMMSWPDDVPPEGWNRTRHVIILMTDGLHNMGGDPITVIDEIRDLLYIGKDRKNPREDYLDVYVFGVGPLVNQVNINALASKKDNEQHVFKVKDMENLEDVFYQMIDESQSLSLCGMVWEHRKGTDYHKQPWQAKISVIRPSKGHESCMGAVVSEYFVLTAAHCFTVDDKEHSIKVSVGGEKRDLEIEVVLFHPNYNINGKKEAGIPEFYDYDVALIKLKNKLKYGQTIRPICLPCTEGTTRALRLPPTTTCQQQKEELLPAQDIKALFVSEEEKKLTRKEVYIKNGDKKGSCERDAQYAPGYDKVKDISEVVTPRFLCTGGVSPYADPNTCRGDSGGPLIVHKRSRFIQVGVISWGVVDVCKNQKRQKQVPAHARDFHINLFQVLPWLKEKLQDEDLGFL
- assay.overview: cell-based or functional assay
quantity.measured: fB Cleavage EC50 (nM)
Give bare numbers, in nM.

The binder listed as chymase C22S/P38Q/K40I/F41R/L99N/V138I/D175T/A190S/V213A/S218V/A226R (enzyme) IIGGTESKPHSRPYMAYLEIVTSNGQSIRCGGFLIRRNFVLTAAHCAGRSITVTLGAHNITEEEDTWQKLEVIKQFRHPKYNTSTNHHDIMLLKLKEKASLTLAVGTLPFPSQFNFVPPGRMCRIAGWGRTGVLKPGSDTLQEVKLRLMDPQACSHFRTFDHNLQLCVGNPRKTKSSFKGDSGGPLLCAGVAQGIASYGRVDAKPPRVFTRISHYRPWINQILQAN shows fB Cleavage EC50 equal to 203

---
Entry chymase C22S/P38Q/K40M/F41T/V138I/D175R/A190S/V213A/S218I/A226R (enzyme) IIGGTESKPHSRPYMAYLEIVTSNGQSMTCGGFLIRRNFVLTAAHCAGRSITVTLGAHNITEEEDTWQKLEVIKQFRHPKYNTSTLHHDIMLLKLKEKASLTLAVGTLPFPSQFNFVPPGRMCRIAGWGRTGVLKPGSDTLQEVKLRLMDPQACSHFRRFDHNLQLCVGNPRKTKSSFKGDSGGPLLCAGVAQGIASYGRIDAKPPRVFTRISHYRPWINQILQAN ; fB Cleavage EC50 = 218

Cited source for all entries: patent US20240117334A1
